molecular target: GLP-1 receptor (GLP-1R) (human, UniProt P43220 24-463); experiment: cell-based or functional assay
Starred links: 1 amine or outer side, 2 acyl side, 3 side chain; linkers in the order of their positions; H or OH if unused. Non-standard residues stand in square brackets, D forms with d. Groups on a side chain read outwards from the residue. Primed or numbered codes have the meaning given here. No end group written: not given here. *: point of attachment. Dodecylbenzoate = dodecylbenzoyl lipid group; γGlu = O=C(O)[C@H](CCC(=O)[*:2])N[*:1]; Stearoyl = CCCCCCCCCCCCCCCCCC(=O)*; αMeF = C[C@](N)(Cc1ccccc1)C(=O)O; αMeK = C[C@](N)(CCCCN)C(=O)O; Lauroyl = CCCCCCCCCCCC(=O)*; αMeS = C[C@](N)(CO)C(=O)O; PEG2′ = not defined here; Aib = CC(C)(N)C(=O)O; Ahx = NCCCCCC(=O)O
experimental endpoint: Primary assay EC50 (cAMP), GLP-1R n2 (pM)

Use these answered entries as a reference point.
| binder | experimental endpoint | reported |
| --- | --- | --- |
| H[Aib]EGS[αMeF]TSDV[αMeS]S[αMeF]LEGEAA[αMeK]E[αMeF]IA[αMeF]VVK([Ahx-Ahx-Dodecylbenzoate])GG-NH2 [SEQ ID NO 177] | Primary assay EC50 (cAMP), GLP-1R n2 | 3 |
| H[Aib]EGS[αMeF]TSDV[αMeS]S[αMeF]LEGEAA[αMeK]E[αMeF]IA[αMeF]VVK([PEG2′-PEG2′-PEG2′-Stearoyl])GG-NH2 [SEQ ID NO 199] | Primary assay EC50 (cAMP), GLP-1R n2 | 7.5 |
| H[Aib]EGS[αMeF]TSDV[αMeS]S[αMeF]LEGEAA[αMeK]E[αMeF]IA[αMeF]VVK([PEG2′-PEG2′-PEG2′-Stearoyl])GG-NH2 [SEQ ID NO 190] | Primary assay EC50 (cAMP), GLP-1R n2 | 4.7 |
| H[Aib]EGS[αMeF]TSDV[αMeS]S[αMeF]LEGEAA[αMeK]E[αMeF]IA[αMeF]VVK([PEG2′-PEG2′-Lauroyl])GG-NH2 [SEQ ID NO 171] | Primary assay EC50 (cAMP), GLP-1R n2 | 1.2 |
| H[Aib]EGS[αMeF]TSDV[αMeS]S[αMeF]LEGEAA[αMeK]E[αMeF]IA[αMeF]VVK([γGlu-γGlu-Dodecylbenzoate])GG-NH2 [SEQ ID NO 174] | Primary assay EC50 (cAMP), GLP-1R n2 | 11 |
| H[Aib]EGS[αMeF]TSDV[αMeS]S[αMeF]LEGEAAK([PEG2′-PEG2′-PEG2′-Stearoyl])E[αMeF]IA[αMeF]VV[αMeK]GG-NH2 [SEQ ID NO 163] | Primary assay EC50 (cAMP), GLP-1R n2 | 49 |

[1] H[Aib]EGS[αMeF]TSDV[αMeS]S[αMeF]LEGEAA[αMeK]E[αMeF]IA[αMeF]VVK([PEG2′-Lauroyl])GG-NH2 [SEQ ID NO 170]
[2] H[Aib]EGS[αMeF]TSDV[αMeS]S[αMeF]LEGEAA[αMeK]E[αMeF]IA[αMeF]VVK([PEG2′-Stearoyl])GG-NH2 [SEQ ID NO 188]
Exam item: Return label of the item with the larger Primary assay EC50 (cAMP), GLP-1R n2. Candidates: 1 , 2 . When you have decided, please share the label of that item.
Marked response: 2
(2: 77 pM, 1: 4.5 pM)
